assay: Human HepG2 cell viability assay in 384 well format; type: toxicity, cell-based; set-up: dose 125 nL, time 70.5 hour; concentration not given beside the values; conditions: HepG2 cells, read-out: Inhibition

| compound | cytotoxicity at 70.5 h [%] |
| --- | --- |
| COCC(=O)Nc1ccnc(OCCN(C)C)c1 | 4.63 |
| CN(C)c1ncnc2c1CCN(c1cccc(F)c1)CC2 | -3.26 |
| CCC[C@@H]1CN(S(=O)(=O)c2ccc(C)c(F)c2)C[C@H]1N(C)C | 0.773 |
| O=C(Cn1ccnc1)N1C[C@@H]2CC[C@H](Oc3cccc(F)c3)[C@@H]2C1 | -6.97 |
| Cn1ccnc1CN1CCCC(Cc2ccnc3ccncc23)CC1 (configuration not stated) | -5.22 |
| CC1(C)CN(S(=O)(=O)N2CCOCC2)CC1c1ccccc1 (configuration not stated) | 1.45 |
| CS(=O)(=O)N1CCOC2(CCCN(c3cnccn3)C2)C1 (configuration not stated) | -6.97 |
| Cc1cc(C)c2nc(CN3CCOC(CCO)C3)cc(O)c2c1 (configuration not stated) | -4.44 |
| c1csc(CNCC2COCc3c(-c4ccoc4)nnn3C2)n1 (configuration not stated) | -8.83 |
| O=C1COC2(CCN(Cc3ccco3)CC2)CN1Cc1cccnc1 | -7.11 |
| CN(CCCc1ccccc1)Cc1nc2c(cnn2C)c(=O)[nH]1 | -5.07 |
| C[C@@H]1CN(S(=O)(=O)c2ccc(F)cc2Cl)C[C@]1(C)O | -0.172 |
| Cc1noc(C)c1CN1CC[C@H]2C[C@H](c3ccncn3)O[C@@H]2C1 | -8.76 |
| COC(=O)CSc1nnc(CCNC(=O)OC(C)(C)C)o1 | -4.92 |
| CC(O)CN1CCc2onc(C(c3ccccc3)c3ccccc3)c2C1 (configuration not stated) | -10 |
| O=C1NCCN1C1CCN(Cc2coc(-c3ccccc3)n2)CC1 | 20.6 |
| COc1c(CNCc2ccc(Cn3ccnc3)cc2)c(C)nn1C | 0.712 |
| Nc1ccc(C(=O)N2CCC(Oc3cccc(C(F)(F)F)c3)CC2)cn1 | -0.861 |
| CCc1cc(C)nc(N2CCN(C(C)c3nc(C)no3)CC2)n1 (configuration not stated) | -7.01 |
| c1ccc(CN2CCc3ncnc(-c4ccncc4)c3CC2)nc1 | 22.4 |
| CCOc1cccc(CN2CCCC(Nc3ccc(F)cc3)C2)c1O (configuration not stated) | -6.06 |
| CCC(C)N1CCc2c(C(=O)N(C)Cc3ccccn3)nn(C)c2C1 (configuration not stated) | -7.34 |
| COCC1CC2(CCN(c3ccc(C)nn3)CC2)CN1C(C)C (configuration not stated) | -10.4 |
| CCNC(=O)N1CC[C@H]2CC(=O)N(CCN3CCNC3=O)CC[C@H]2C1 | -3.51 |
| COCCN1CCN(c2nc(C3CCCC3)nc3c2cnn3C)CC1 | -16.1 |
| COc1ccnc(NC2CCN(CC(=O)N3CCCC3)CC2)n1 | -4.69 |
| CC(c1nc(C2CC2)no1)N(C)Cc1ccc(Cl)cc1 (configuration not stated) | -3.08 |
| O=C(c1ccoc1)N(Cc1ccncc1)C1CC1 | -14 |
| COCCSCC(=O)NCc1ccc(N(C)C)cc1 | -0.963 |
| Cc1nc(NS(=O)(=O)c2cc(C)c(Br)cc2C)no1 | -14.1 |
| F[C@@H]1CN(Cc2ccccc2)C[C@@H]1OCc1nc2cnccc2[nH]1 | 13.9 |
| CN(C)C(=O)N1CCN(Cc2noc(Cc3ccccc3)n2)CC1 | -5.82 |
| CN(Cc1ccnc2ccccc12)C1CCS(=O)(=O)C1 (configuration not stated) | -6.17 |
| CCn1ncc(CN2C[C@@H]3CCCN3C[C@@H]2CCSC)c1C | -6.31 |
| O=C(c1ccc(S(=O)(=O)NCc2ccncc2)cc1)N1CCNCC1 | -6.98 |
| CS(=O)(=O)CCn1ccc(NC(=O)Cc2cccc(Cl)c2)n1 | -0.645 |
| CC(=O)Nc1nc(C2CCN(C(=O)C3CCC3)CC2)cs1 | -5.93 |
| CC(c1ccco1)N(C(=O)COc1ccc(C#N)cc1)C1CC1 (configuration not stated) | -6.31 |
| CCOC(C)c1noc(CN(C)C(=O)C2C(C)(C)C2(C)C)n1 (configuration not stated) | -2.89 |
| Cn1ccnc1CN1CCC2(CC1)CN(Cc1cccnc1)C(=O)CO2 | -5.54 |
| CCOC(=O)CN1CCC2(CC1)CC(=O)c1ccc3ccccc3c1O2 | -5.23 |
| CN(C)Cc1cn2c(n1)CN(C1CCOC1)CC2 (configuration not stated) | -1.23 |
| CN(Cc1ncc(-c2ccccc2)o1)C1CCCN(c2cccnn2)C1 (configuration not stated) | 2.02 |
| CN1CCC(C(=O)N2CCC(c3ccc4c(N)n[nH]c4n3)CC2)CC1 | -0.601 |
| Cc1nnc([C@H]2C[C@@H]3CCN(Cc4cc(C)on4)C[C@H]3O2)[nH]1 | -4.17 |
| CCCc1ncc(C(=O)N2CCOc3ncccc32)s1 | -2.81 |
| Cc1cc(NC2CCc3nc(C(C)C)nn3C2)n2ncnc2n1 (configuration not stated) | 84.4 |

---

test: Human HepG2 cell viability assay in 384 well format; type: toxicity, cell-based; design: dose 125 nL, time 70.5 hour; concentration not given beside the values; conditions: HepG2 cells, read-out: Inhibition
A collection of molecules and their measured cytotoxicity at 70.5 h
measure: cytotoxicity at 70.5 h (%)

| molecule | endpointResult |
| --- | --- |
| Cc1nccn1-c1ccc(=O)n(CCNC(=O)Cc2ccccc2)n1 | -12.3 |
| COc1ncc(-c2nccn2CCN(C)C)cn1 | 9.94 |
| COc1ccc(CNC(=O)Nc2ccc(N3CCCC3)nc2)cc1O | -2.31 |
| COc1ccccc1CC(=O)NS(=O)(=O)c1ccc(NC(C)=O)cc1 | -6.22 |
| CC(Cn1cccn1)NCc1nc(-c2cccnc2)no1 (stereo unspecified) | -3.96 |
| CN(C)c1cccc(C(=O)N2CCn3c(nnc3-c3ccccc3)C2)c1 | -7.74 |

---

cytotoxicity at 70.5 h values for the molecules below.
experiment: Human HepG2 cell viability assay in 384 well format; type: toxicity, cell-based; set-up: dose 125 nL, time 70.5 hour; concentration not given beside the values; details: HepG2 cells, read-out: Inhibition
measure: cytotoxicity at 70.5 h

| molecule | endpointResult |
| --- | --- |
| CN1CCN(S(=O)(=O)c2ccc(Sc3nccn3C)nc2)CC1 | 21.6% |
| O=C(CCc1nc2cc(Br)cnc2[nH]1)NCCCN1CCOCC1 | -17.4% |
| Cc1c(CNCc2nn(-c3ccccc3)c3c2CCC3)cc(C#N)n1C | 4.96% |
| O=C(NC1CCOCC1)C1CC(=O)N(Cc2ccccn2)C1 (centres undefined) | -2.88% |
| N#Cc1c(Cl)nsc1N1CCN(CC2CC2)CC1 | 2.5% |
| CN1CCN(C(=O)NCCNc2ncccn2)Cc2ccccc21 | -14% |
| CCOc1ccc2oc(-c3cnn(C)c3C)c(O)c(=O)c2c1 | -3.56% |
| COCCNC(=O)c1ccc(C)c(-n2cccc2)c1 | -2.8% |
| CC(c1cccnc1)N(C)S(C)(=O)=O (centres undefined) | -2.51% |
| Cn1cnc2c1CCN(Cc1csc(Cc3ccccc3)n1)C2 | -9.86% |
| CC(C)CCN1C(=O)CC(N(C)Cc2nc3ccccc3c(=O)[nH]2)C1=O (centres undefined) | -6.43% |
| CCC(NC(=O)Nc1cc(F)c(OC)c(F)c1)c1noc(C)n1 (centres undefined) | 0.154% |
| CCC(=O)N1CCCC1c1nc(N(C)C)ncc1-c1ccc(Cl)cc1 (centres undefined) | 2.05% |
| COCCNC(=O)[C@@H]1CC[C@@H]2[C@@H](CCN2c2ncc(F)cn2)O1 | -3.55% |
| Cc1ccc(C(=O)N(CCC#N)Cc2ccccn2)cc1C | 8.47% |
| O=C(Cn1ccc2sccc2c1=O)NCc1ccccc1F | -5.13% |
| Cc1cnn(CC2CN(CC(=O)NCc3ccco3)CCO2)c1 (centres undefined) | -15.3% |
| CC(C)CNC(=O)[C@H]1CCS(=O)(=O)[C@@H]2CN(CC(C)C)C[C@H]12 | -1.81% |
| CCn1ncc2c1CCCC2NCc1ccccc1N1CCOCC1 (centres undefined) | 7.21% |
| O=C1[C@H]2CN(Cc3ccco3)C[C@H]2CN1c1cncnc1 | -5.56% |
| Cn1cc(CCNC(=O)c2cc3ccccc3nc2N2CCCC2)cn1 | 3.18% |
| CCSc1ccc(NC(=O)NC(C)c2c(C)noc2C)cn1 (centres undefined) | -6.61% |
| Cc1nc(NC2CCS(=O)(=O)CC2)cc(C2CCCNC2)n1 (centres undefined) | -7.39% |
| CCc1cnc(N)nc1NCCN1CCCCC1 | 23% |

Data provenance: ChEMBL document CHEMBL3507680
